meta.source: patent US12559474B2

In this section, each of the compounds is paired with its reported pIC50.
# study.system: SARS-CoV-2 3CL protease (Severe acute respiratory syndrome coronavirus 2, UniProt P0DTD1)
# method.description: biochemical
# assay.conditions: IC50
pIC50: −log10 of the molar value.

compound: CNC(=O)Cn1c(=O)[nH]/c(=N\c2cc3cn(C)nc3cc2Cl)n(Cc2cc(F)c(F)c(F)c2)c1=O [II-0328]
pIC50: > 7.00
--
compound: O=c1[nH]cccc1Cn1c(=O)nc(N[C@@H]2CCN(c3ccccn3)C2)n(Cc2cc(F)c(F)c(F)c2)c1=O [II-0374]
pIC50: 5.46
--
compound: Cc1cn2cc(Nc3nc(=O)n(Cc4ccc[nH]c4=O)c(=O)n3Cc3cc(F)c(F)c(F)c3)c(Cl)cc2n1 [Compound I-0441]
pIC50: > 7.00
--
compound: CCNc1nc2cc(Cl)c(Nc3nc(=O)n(Cc4ncn(C)n4)c(=O)n3Cc3cc(Cl)c(F)cn3)cc2s1 [II-0340]
pIC50: > 7.00
--
compound: CC(=O)Nc1nc2cc(Cl)c(Nc3nc(=O)n(Cc4ncn(C)n4)c(=O)n3Cc3ccc(F)c(C#N)c3)cc2s1 [II-0083]
pIC50: > 7.00

Ask | Fill in reported pIC50 for this entry: Cn1cnc(Cn2c(=O)nc(Nc3cc4cn(C)nc4cc3Cl)n(Cc3cc(Cl)c(F)cn3)c2=O)n1 [II-0542]
Reply | > 7.00

Ask | Please report pIC50 for the following compound: CN(C)C(=O)CCn1cc2cc(Nc3nc(=O)n(Cc4ncn(C)n4)c(=O)n3Cc3cc(Cl)c(F)cc3F)c(Cl)cc2n1 [II-0338]
Reply | > 7.00

###

The following compounds are shown together with reported pIC50 values.
# study.system: SARS-CoV-2 3CL protease (Severe acute respiratory syndrome coronavirus 2, UniProt P0DTD1)
# method.description: biochemical
# assay.conditions: IC50
pIC50: −log10 of the molar value.

See these solved cases before continuing.
record.smiles: Cn1cnc(Cn2c(=O)nc(Nc3cc4cn(C)nc4cc3Cl)n(CC3CCCCC3)c2=O)n1
pIC50: 6.00 to 7.00
//
record.smiles: Cc1cncc(-n2c(=O)nc(Nc3cc4cn([C@H]5CC[C@H](N)CC5)nc4cc3Cl)n(Cc3cc(Cl)ccc3Cl)c2=O)c1
pIC50: > 7.00
//
record.smiles: COc1ccc(Nc2nc(=O)n(Cc3cc(C(=O)NCc4cnn(C)c4)c[nH]c3=O)c(=O)n2Cc2cc(F)c(F)c(F)c2)cc1
pIC50: > 7.00

Ask | Read the entry `COc1ccc(Nc2nc(=O)n(Cc3c[nH]c(=S)[nH]c3=O)c(=O)n2Cc2cc(F)c(F)c(F)c2)cc1` and write its reported pIC50.
Reply | > 7.00

Ask | Consider the compound `Cn1cnc(Cn2c(=O)nc(Nc3cc4cn(C)nc4cc3Cl)n(Cc3c4ccccc4cc4ccccc34)c2=O)n1` and give its recorded pIC50.
Reply | 5.57

Ask | Give pIC50 for the following compound: `O=c1[nH]cccc1Cn1c(=O)nc(NC23CC(Nc4ncc5ccccc5n4)(C2)C3)n(Cc2cc(F)c(F)c(F)c2)c1=O`
Reply | > 7.00

Ask | Provide one value: measured pIC50 of `Cn1cnc(Cn2c(=O)nc(Nc3cc4cn(C)nc4cc3Cl)n(Cc3cc(Cl)ccc3O)c2=O)n1`
Reply | 6.08
